Hello, the source for this data is ChEMBL document CHEMBL1921748, in case you need it.

Experiment: Oral bioavailability in Sprague-Dawley rat at 30 mg/kg
Type: ADME, organism-based
Conditions: in vivo
experimental-endpoint: bioavailability (%)
Give bare numbers, in %.

// bioavailability lookup, key: COCCCc1cc(CN(C(=O)[C@H]2CNCC[C@]2(O)c2ccc(F)c(F)c2)C2CC2)cc(OCCOC)c1
18

###

Experiment: Volume of distribution at steady state in Sprague-Dawley rat at 3 mg/kg, po and 0.5 mg/kg, iv
Type: ADME, organism-based
Details: in vivo, read-out: Vdss
experimental-endpoint: Vd (L/kg)
Numbers only, in L/kg.

// Vd lookup, key: COCCCc1cc(CCCN2CCOCC2)c(Cl)c(CN(C(=O)[C@H]2CNCC[C@@]23OCc2cc(F)c(F)cc23)C2CC2)c1.Cl.Cl.Cl
24

###

Assay: Clearance in rhesus monkey at 3 mg/kg, po and 1 mg/kg, iv
Type: ADME, organism-based, Macaca mulatta
Settings: in vivo
experimental-endpoint: clearance

// clearance lookup, key: COCCCc1cc(CCCN2CCOCC2)c(Cl)c(CN(C(=O)[C@H]2CNCC[C@@]23OCc2cc(F)c(F)cc23)C2CC2)c1.Cl.Cl.Cl
66 mL/min/kg

###

Experiment: Oral bioavailability in rhesus monkey at 3 mg/kg
Format: ADME, organism-based, Macaca mulatta
Settings: in vivo
experimental-endpoint: bioavailability (%)
One number for each entry, in %.

// bioavailability lookup, key: COCCCc1cc(CCCN2CCOCC2)c(Cl)c(CN(C(=O)[C@H]2CNCC[C@@]23OCc2cc(F)c(F)cc23)C2CC2)c1.Cl.Cl.Cl
1

###

Assay: AUC in Sprague-Dawley rat at 3 mg/kg, po
Type: ADME, organism-based
Parameters: dose 3 mg/kg, route oral
Details: plasma
experimental-endpoint: AUC (µM·h)
Give bare numbers, in µM·h.

// AUC lookup, key: COCCCc1cc(CCCN2CCOCC2)c(Cl)c(CN(C(=O)[C@H]2CNCC[C@@]23OCc2cc(F)c(F)cc23)C2CC2)c1.Cl.Cl.Cl
0.37

###

Test: Apparent permeability of the compound
Format: ADME
Conditions: not told
experimental-endpoint: Papp
Record the result as a number with its unit.

// Papp lookup, key: COCCCc1cc(CN(C(=O)[C@H]2CNCC[C@]2(O)c2ccc(F)c(F)c2)C2CC2)cc(OCCOC)c1
215 nm/s

###

Experiment: Metabolic stability in rat liver microsomes assessed as compound remaining at 1 uM after 30 mins in presence of NADPH
Type: ADME, Microsome
Settings: read-out: Stability
experimental-endpoint: remaining at 0.5 h, 1 µM
Record the result as a number with its unit.

Cc1cccc(CN(C(=O)[C@H]2CNCC[C@@]23OCc2cc(F)c(F)cc23)C2CC2)c1C
0%

// remaining at 0.5 h, 1 µM lookup, key: COCCCc1cc(CCCN2CCOCC2)c(Cl)c(CN(C(=O)[C@H]2CNCC[C@@]23OCc2cc(F)c(F)cc23)C2CC2)c1
53%

###

Test: Oral bioavailability in Sprague-Dawley rat at 3 mg/kg
Format: ADME, organism-based
Conditions: in vivo
Would you mind telling me the reported bioavailability of each entry?
Numbers only, in %.

COCCCc1cc(CN(C(=O)[C@H]2CNCC[C@]2(O)c2ccc(F)c(F)c2)C2CC2)cc(OCCOC)c1
29

Now consider a different compound.
// bioavailability lookup, key: COCCCc1cc(CCCN2CCOCC2)c(Cl)c(CN(C(=O)[C@H]2CNCC[C@@]23OCc2cc(F)c(F)cc23)C2CC2)c1.Cl.Cl.Cl
23
